test: Antiproliferative activity against human IH-1 cells after 3 days by MTT assay; format: functional, cell-based; conditions: IH-1, 72 h
PROPERTY MEASURED: IC50
Could you kindly put the unit after your number?

Look at this compound and give its reported IC50. CC(C)COc1cc(C(=O)O)ccc1NC(=O)c1ccc([N+](=O)[O-])c(OCc2cccc3ccccc23)c1
20.6 µM

====

test system: HeLa; experiment: Antiproliferative activity against human HeLa cells after 3 days by MTT assay; format: functional, cell-based; conditions: 72 h
PROPERTY MEASURED: IC50 (µM)
Provide only the numeric value, understood in µM.

State its IC50 on HeLa: CC(C)COc1cc(C(=O)O)ccc1NC(=O)c1ccc([N+](=O)[O-])c(OCc2cccc3ccccc23)c1
10.8

====

This section presents compounds with their documented Activity values.
biological target: c-Myc/Max (Homo sapiens, UniProt P01106+P61244); assay: Disruption of human recombinant c-Myc-Max(S)/DNA (unknown origin) binding assessed as complex level at 100 uM by electrophoretic mobility shift assay relative to control; type: protein-complex assay
Provide only the numeric value, understood in %.

Some solved cases for reference:
CC(C)COc1cc(C(=O)O)ccc1NC(=O)c1ccc([N+](=O)[O-])c(OCc2ccccn2)c1 | 100
O=C(O)c1ccc(NC(=O)c2ccc([N+](=O)[O-])cc2)cc1 | 87
COc1cc(C(=O)O)ccc1NC(=O)c1ccc([N+](=O)[O-])c(OC)c1 | 94
CC(C)COc1cc(C(=O)Nc2ccc(C(=O)O)cc2)ccc1[N+](=O)[O-] | 81

Now take the following compound into account.
Look at this compound and give its reported Activity. CCOC(=O)C(=O)Nc1ccc(C(=O)Nc2ccc(C(=O)O)cc2OCC(C)C)cc1OCC(C)C
0

====

experiment: Antiproliferative activity against human U266 cells after 3 days by MTT assay; assay type: functional, cell-based; details: U-266, 72 h
PROPERTY MEASURED: IC50 (µM)
Provide only the numeric value, understood in µM.

Look at this compound and give its reported IC50. CC(C)COc1cc(C(=O)O)ccc1NC(=O)c1ccc([N+](=O)[O-])c(OCc2cccc3ccccc23)c1
46

====

molecular target: c-Myc/Max (Homo sapiens, UniProt P01106+P61244); test: Disruption of human recombinant c-Myc-Max(S)/DNA (unknown origin) binding assessed as complex level at 100 uM by electrophoretic mobility shift assay relative to control; assay type: protein-complex assay
This section presents molecules with their documented Activity values.
Provide only the numeric value, understood in %.

CC(C)COc1cc(C(=O)Nc2ccc(C(=O)O)cc2OCc2cccnc2)ccc1[N+](=O)[O-] | 75
CC(C)COc1cc(C(=O)O)ccc1NC(=O)c1ccc([N+](=O)[O-])cc1OCC(C)C | 120

State its Activity on c-Myc/Max (Homo sapiens, UniProt P01106+P61244): CC(C)COc1cc(C(=O)O)ccc1NC(=O)c1ccc([N+](=O)[O-])c(OC2Cc3ccccc3C2)c1
65

State its Activity on c-Myc/Max (Homo sapiens, UniProt P01106+P61244): CC(C)COc1cc(C(=O)O)ccc1NC(=O)c1ccc(N)c(OC2Cc3ccccc3C2)c1
87

State its Activity on c-Myc/Max (Homo sapiens, UniProt P01106+P61244): COC(=O)c1ccc(NC(=O)c2ccc([N+](=O)[O-])c(OCc3ccccc3)c2)c(OCC(C)C)c1
75

State its Activity on c-Myc/Max (Homo sapiens, UniProt P01106+P61244): CC(C)COc1nc(C(=O)O)ccc1NC(=O)c1ccc([N+](=O)[O-])c(OCC(C)C)n1
0

State its Activity on c-Myc/Max (Homo sapiens, UniProt P01106+P61244): COC(=O)c1ccc(NC(=O)c2ccc([N+](=O)[O-])c(OCc3ccccc3)c2)c(OCc2ccccc2)c1
85

State its Activity on c-Myc/Max (Homo sapiens, UniProt P01106+P61244): CC(C)COc1nc(C(=O)Nc2ccc(C(=O)O)nc2OCC(C)C)ccc1N
79

State its Activity on c-Myc/Max (Homo sapiens, UniProt P01106+P61244): COC(=O)c1ccc(NC(=O)c2ccc([N+](=O)[O-])c(OCC(C)C)c2)c(OCC(C)C)c1
112

State its Activity on c-Myc/Max (Homo sapiens, UniProt P01106+P61244): COC(=O)c1ccc(NC(=O)c2ccc([N+](=O)[O-])c(OCc3cccc4ccccc34)c2)c(OCc2ccccc2)c1
88
